Data origin, for the record: paper PMC3790193

- Format: in vivo, Rowett nude rats
- testConditions: male, Rowett nude (Cr:NIH-ru), rat, lung, ip, 2 mg/kg
assayMetric: half-life (min)

* Nc1ncn([C@@H]2O[C@H](CO)[C@@H](O)[C@H]2O)c(=O)n1 | 8.4

====

- Type: in vivo, Rowett nude rats
- testConditions: male, Rowett nude (Cr:NIH-ru), rat, plasma, inhaled or intranasal, 0.6 mg/kg
assayMetric: AUC (ng·h/mL)

• Nc1ncn([C@@H]2O[C@H](CO)[C@@H](O)[C@H]2O)c(=O)n1 = 1890

====

- Type: in vivo, Rowett nude rats
- testConditions: male, Rowett nude (Cr:NIH-ru), rat, plasma, ip, 2 mg/kg
assayMetric: half-life (min)

- Nc1ncn([C@@H]2O[C@H](CO)[C@@H](O)[C@H]2O)c(=O)n1: 25.2
